Answer each item with its documented TLR9 500 nM.
ASSAY_SYSTEM: human TLR9 (Homo sapiens, UniProt Q9NR96)
Construct: HA; host or cells: 293XL-hTLR9-HA (HEK293)
Sequence (Q9NR96 26-1032): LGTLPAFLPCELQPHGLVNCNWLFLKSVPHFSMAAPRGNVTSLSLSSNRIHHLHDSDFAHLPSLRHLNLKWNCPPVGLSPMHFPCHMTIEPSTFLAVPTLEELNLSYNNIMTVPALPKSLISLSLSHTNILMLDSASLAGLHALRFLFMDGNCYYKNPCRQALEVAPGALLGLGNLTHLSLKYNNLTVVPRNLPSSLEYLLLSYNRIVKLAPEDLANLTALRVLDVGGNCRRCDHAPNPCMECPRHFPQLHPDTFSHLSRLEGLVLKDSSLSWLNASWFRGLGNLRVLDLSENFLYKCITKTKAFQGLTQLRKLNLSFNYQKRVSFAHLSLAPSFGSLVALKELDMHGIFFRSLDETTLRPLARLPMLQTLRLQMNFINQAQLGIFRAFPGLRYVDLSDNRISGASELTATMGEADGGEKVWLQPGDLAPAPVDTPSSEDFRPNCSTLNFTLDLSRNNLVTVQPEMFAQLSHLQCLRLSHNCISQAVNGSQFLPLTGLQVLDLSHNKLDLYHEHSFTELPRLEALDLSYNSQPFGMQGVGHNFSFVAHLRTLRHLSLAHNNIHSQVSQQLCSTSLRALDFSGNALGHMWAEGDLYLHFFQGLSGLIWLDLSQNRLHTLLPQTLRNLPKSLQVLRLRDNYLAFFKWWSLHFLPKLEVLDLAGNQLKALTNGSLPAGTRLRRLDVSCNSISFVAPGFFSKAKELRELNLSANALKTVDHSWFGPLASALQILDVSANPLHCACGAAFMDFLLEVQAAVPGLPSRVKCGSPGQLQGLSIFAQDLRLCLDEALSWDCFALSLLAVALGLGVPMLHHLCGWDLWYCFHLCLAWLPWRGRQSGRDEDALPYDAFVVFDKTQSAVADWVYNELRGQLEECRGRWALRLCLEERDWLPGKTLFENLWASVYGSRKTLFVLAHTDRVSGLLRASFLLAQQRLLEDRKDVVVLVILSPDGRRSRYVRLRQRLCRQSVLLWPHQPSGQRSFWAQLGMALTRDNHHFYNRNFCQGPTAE
ASSAY_SUMMARY: HEK-TLR9 NF-κB-luciferase reporter, ODN2006 stimulation
Assay type: cell-based
EXPERIMENTAL_SETUP: MOE-modified ASO at 500 nM; averaged NF-κB-Luciferase relative to ODN2006 condition
Lab note: jot down the number only; don't add units.

Form field: reported TLR9 500 nM of ACCCACTTGGCAGACCATCA (antisense; 2'-MOE modified, pattern not given here) [CTNN2B-1575 MOE]
0.556

Form field: reported TLR9 500 nM of ATGTCCCGCCACTGGATGCT (antisense; 2'-MOE modified, pattern not given here) [EGFR-727 MOE]
0.423

Form field: reported TLR9 500 nM of ATGCCATCCACTTGATAGGC (antisense; 2'-MOE modified, pattern not given here) [EGFR-2874 MOE]
0.589

Form field: reported TLR9 500 nM of GGAGGTCTTGGCTTCGTGGA (antisense; 2'-MOE modified, pattern not given here) [MB21D1-524 MOE]
0.342

Form field: reported TLR9 500 nM of ACACTTCGTGGGGTCCTTTT (antisense; 2'-MOE modified, pattern not given here) [HPRT-663 MOE]
0.226

Form field: reported TLR9 500 nM of GGTTTTGGCTGGGATCAAGT (antisense; 2'-MOE modified, pattern not given here) [CAMSAP1-4697 MOE]
0.200

Form field: reported TLR9 500 nM of GAGGTCTTGGCTTCGTGGAG (antisense; 2'-MOE modified, pattern not given here) [MB21D1-523 MOE]
0.650

Form field: reported TLR9 500 nM of GCCGCTTTTCTGTCTGGTTC (antisense; 2'-MOE modified, pattern not given here) [CTNN2B-311 MOE]
1.018

---

ASSAY_SYSTEM: TLR8 (Homo sapiens, UniProt Q9NR97)
Sequence (Q9NR97 27-1041): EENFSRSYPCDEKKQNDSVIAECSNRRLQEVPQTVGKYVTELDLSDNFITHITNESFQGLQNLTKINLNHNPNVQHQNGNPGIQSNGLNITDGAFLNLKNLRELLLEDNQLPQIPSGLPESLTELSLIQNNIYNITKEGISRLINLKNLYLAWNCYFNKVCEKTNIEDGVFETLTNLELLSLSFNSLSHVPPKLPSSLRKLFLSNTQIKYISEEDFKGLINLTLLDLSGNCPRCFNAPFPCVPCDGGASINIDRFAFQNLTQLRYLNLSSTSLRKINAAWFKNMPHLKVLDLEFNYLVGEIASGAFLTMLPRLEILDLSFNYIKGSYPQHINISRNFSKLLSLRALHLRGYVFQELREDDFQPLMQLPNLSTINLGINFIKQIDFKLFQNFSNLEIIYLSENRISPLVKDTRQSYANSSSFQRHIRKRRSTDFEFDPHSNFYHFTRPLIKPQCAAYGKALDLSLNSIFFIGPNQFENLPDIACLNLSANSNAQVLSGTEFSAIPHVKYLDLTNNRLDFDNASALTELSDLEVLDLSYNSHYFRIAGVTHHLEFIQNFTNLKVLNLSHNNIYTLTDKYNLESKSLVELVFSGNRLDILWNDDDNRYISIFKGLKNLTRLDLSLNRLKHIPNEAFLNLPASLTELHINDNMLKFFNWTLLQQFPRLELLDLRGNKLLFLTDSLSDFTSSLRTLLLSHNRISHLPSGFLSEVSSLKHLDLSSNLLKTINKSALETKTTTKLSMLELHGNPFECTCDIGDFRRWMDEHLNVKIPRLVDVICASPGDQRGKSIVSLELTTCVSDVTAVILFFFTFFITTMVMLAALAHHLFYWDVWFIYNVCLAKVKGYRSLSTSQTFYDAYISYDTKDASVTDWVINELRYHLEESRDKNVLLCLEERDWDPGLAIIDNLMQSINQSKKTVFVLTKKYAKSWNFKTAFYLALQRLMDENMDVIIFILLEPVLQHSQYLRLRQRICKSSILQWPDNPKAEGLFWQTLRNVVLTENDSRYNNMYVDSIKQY
ASSAY_SUMMARY: HEK-TLR8 NF-κB-luciferase reporter, R848 or Motolimod stimulation (potentiation or inhibition)
Type: cell-based
Design: expressed in transfected cells; host or cells: 293XLhTLR8 (HEK293)
EXPERIMENTAL_SETUP: ASO 500 nM; relative to R848 only
Please use 1 whenever TLR8 500 nM (averaged NF-κB-Luciferase level relative to R848 condition, fold increase) is not below 0.9, and 0 whenever it is.

Decide: is the reported value of TLR8 500 nM (averaged NF-κB-Luciferase level relative to R848 condition, fold increase) for CTTGAAGCATCGTATC (antisense; LNA-modified, pattern not given here) [CTNN2B-3648 LNA KL] equal to or greater than 0.9?
1

Decide: is the reported value of TLR8 500 nM (averaged NF-κB-Luciferase level relative to R848 condition, fold increase) for TCCTTGCACGTGGCTT (antisense; LNA-modified, pattern not given here) [EGFR-1014 LNA V1] equal to or greater than 0.9?
0

Decide: is the reported value of TLR8 500 nM (averaged NF-κB-Luciferase level relative to R848 condition, fold increase) for CCAAGATCAGCAGTCT (antisense; LNA-modified, pattern not given here) [CTNN2B-2341 LNA KL] equal to or greater than 0.9?
1

Decide: is the reported value of TLR8 500 nM (averaged NF-κB-Luciferase level relative to R848 condition, fold increase) for GCCATGCTGGCTCGGA (antisense; LNA-modified, pattern not given here) [CAMSAP1-2584 LNA V1] equal to or greater than 0.9?
0

Decide: is the reported value of TLR8 500 nM (averaged NF-κB-Luciferase level relative to R848 condition, fold increase) for GTCTTGGCTTCGTGGA (antisense; LNA-modified, pattern not given here) [MB21D1-522 LNA V1] equal to or greater than 0.9?
1

Decide: is the reported value of TLR8 500 nM (averaged NF-κB-Luciferase level relative to R848 condition, fold increase) for TGACTGTCTTGAGGGT (antisense; LNA-modified, pattern not given here) [MB21D1-1483 LNA KL] equal to or greater than 0.9?
1

Decide: is the reported value of TLR8 500 nM (averaged NF-κB-Luciferase level relative to R848 condition, fold increase) for AGGCCCTTCGCACTTC (antisense; LNA-modified, pattern not given here) [EGFR-1225 LNA V1] equal to or greater than 0.9?
1

Decide: is the reported value of TLR8 500 nM (averaged NF-κB-Luciferase level relative to R848 condition, fold increase) for TCCAACACTTCGTGGG (antisense; LNA-modified, pattern not given here) [HPRT LNA-669 V1] equal to or greater than 0.9?
0

Decide: is the reported value of TLR8 500 nM (averaged NF-κB-Luciferase level relative to R848 condition, fold increase) for TGATGGCCTCCCATCT (antisense; LNA-modified, pattern not given here) [HPRT LNA-332 V1] equal to or greater than 0.9?
0

Decide: is the reported value of TLR8 500 nM (averaged NF-κB-Luciferase level relative to R848 condition, fold increase) for CATCCACCACGTCGTC (antisense; LNA-modified, pattern not given here) [EGFR-3266 LNA V1] equal to or greater than 0.9?
1

Decide: is the reported value of TLR8 500 nM (averaged NF-κB-Luciferase level relative to R848 condition, fold increase) for AACCCCTTTCACCATC (antisense; LNA-modified, pattern not given here) [MB21D1-689 LNA KL] equal to or greater than 0.9?
1

Decide: is the reported value of TLR8 500 nM (averaged NF-κB-Luciferase level relative to R848 condition, fold increase) for GCACTTCAGTCTGAGC (antisense; LNA-modified, pattern not given here) [MB21D1-719 LNA KL] equal to or greater than 0.9?
0

Decide: is the reported value of TLR8 500 nM (averaged NF-κB-Luciferase level relative to R848 condition, fold increase) for GGCACTTTGCCTCCTT (antisense; LNA-modified, pattern not given here) [EGFR-2859 LNA V1] equal to or greater than 0.9?
0

Decide: is the reported value of TLR8 500 nM (averaged NF-κB-Luciferase level relative to R848 condition, fold increase) for GAGGTCTTGGCTTCGT (antisense; LNA-modified, pattern not given here) [MB21D1-525 LNA V1] equal to or greater than 0.9?
0

Decide: is the reported value of TLR8 500 nM (averaged NF-κB-Luciferase level relative to R848 condition, fold increase) for TCGTAGTTGCTTCCTA (antisense; LNA-modified, pattern not given here) [MB21D1-1181 LNA KL] equal to or greater than 0.9?
1

Decide: is the reported value of TLR8 500 nM (averaged NF-κB-Luciferase level relative to R848 condition, fold increase) for GACTATACGCGCAATA (antisense; LNA-modified, pattern not given here) [NC5 LNA PS 3-10-3] equal to or greater than 0.9?
1

Decide: is the reported value of TLR8 500 nM (averaged NF-κB-Luciferase level relative to R848 condition, fold increase) for CCACTTGGCAGACCAT (antisense; LNA-modified, pattern not given here) [CTNN2B-1575 LNA V1] equal to or greater than 0.9?
1

Decide: is the reported value of TLR8 500 nM (averaged NF-κB-Luciferase level relative to R848 condition, fold increase) for ATGTGATGGCCTCCCA (antisense; LNA-modified, pattern not given here) [HPRT LNA-335 V1] equal to or greater than 0.9?
1

Decide: is the reported value of TLR8 500 nM (averaged NF-κB-Luciferase level relative to R848 condition, fold increase) for GTCCCCTGTTGACTGG (antisense; LNA-modified, pattern not given here) [HPRT LNA-489 KL] equal to or greater than 0.9?
0

---

ASSAY_SYSTEM: cGAS (Homo sapiens)
Sequence (Q8N884 whole entry): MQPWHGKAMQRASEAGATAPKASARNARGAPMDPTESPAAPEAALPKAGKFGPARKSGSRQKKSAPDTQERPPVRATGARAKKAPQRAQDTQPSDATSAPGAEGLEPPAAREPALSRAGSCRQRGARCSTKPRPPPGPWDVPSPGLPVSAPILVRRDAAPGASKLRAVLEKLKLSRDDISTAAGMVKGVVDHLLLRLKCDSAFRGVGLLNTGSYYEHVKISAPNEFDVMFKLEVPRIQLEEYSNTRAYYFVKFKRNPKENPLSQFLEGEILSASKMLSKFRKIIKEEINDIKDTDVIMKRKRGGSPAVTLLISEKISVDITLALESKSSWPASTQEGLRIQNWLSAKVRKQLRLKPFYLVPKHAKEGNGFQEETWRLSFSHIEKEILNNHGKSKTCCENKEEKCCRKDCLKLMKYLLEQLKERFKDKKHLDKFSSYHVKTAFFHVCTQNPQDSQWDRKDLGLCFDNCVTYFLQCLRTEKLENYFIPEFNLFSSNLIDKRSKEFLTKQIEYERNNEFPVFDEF
ASSAY_SUMMARY: ISD70-driven IP-10 (and IFN-β) production in THP-1 cells, ELISA
Assay type: cell-based
Design: endogenous in cells; host or cells: THP-1 (undifferentiated)
EXPERIMENTAL_SETUP: MOE-modified ASO at 100 nM; averaged IP-10 levels relative to ISD70 condition
Protocol: The ability of an oligonucleotide to inhibit cGAS activity can, for example, be analysed by incubating cells which express cGAS with an oligonucleotide, then stimulating said cells with a cGAS agonist (e.g., 70-bp interferon stimulating DNA or ISD70; 45-bp interferon stimulating DNA or ISD45), and analysing the overall cGAS response in the cell population, or analysing the proportion of cells having cGAS-positive activity after a defined period of time. […]
Please use y whenever cGAS 100 nM is not below 0.4, and n whenever it is.

Decide: is the reported value of cGAS 100 nM for CGGCATCCACCACGTCGTCC (antisense; 2'-MOE modified, pattern not given here) [EGFR-3267 MOE] equal to or greater than 0.4?
n

Decide: is the reported value of cGAS 100 nM for ACAACCCCTTTCACCATCCC (antisense; 2'-MOE modified, pattern not given here) [MB21D1-689 MOE] equal to or greater than 0.4?
y

Decide: is the reported value of cGAS 100 nM for GTCTTGGCTTCGTGGAGCAG (antisense; 2'-MOE modified, pattern not given here) [MB21D1-520 MOE] equal to or greater than 0.4?
n

Decide: is the reported value of cGAS 100 nM for CTTACTTTCCGAGGTGTCCA (antisense; 2'-MOE modified, pattern not given here) [CAMSAP1-1739 MOE] equal to or greater than 0.4?
y

Decide: is the reported value of cGAS 100 nM for TGGGCTGGAATCCGAGTTAT (antisense; 2'-MOE modified, pattern not given here) [EGFR-4705 MOE] equal to or greater than 0.4?
y

Decide: is the reported value of cGAS 100 nM for GCTGACAAAGATTCACTGGT (antisense; 2'-MOE modified, pattern not given here) [HPRT-1353 MOE] equal to or greater than 0.4?
n

Decide: is the reported value of cGAS 100 nM for GGCATCCACCACGTCGTCCA (antisense; 2'-MOE modified, pattern not given here) [EGFR-3266 MOE] equal to or greater than 0.4?
y

Decide: is the reported value of cGAS 100 nM for GCGGAGGTCTTGGCTTCGTG (antisense; 2'-MOE modified, pattern not given here) [MB21D1-526 MOE] equal to or greater than 0.4?
n

Decide: is the reported value of cGAS 100 nM for CAGATAGCACCTTCAGCACT (antisense; 2'-MOE modified, pattern not given here) [CTNN2B-1294 MOE] equal to or greater than 0.4?
n

Decide: is the reported value of cGAS 100 nM for TGGCAGGCTCAGTGATGTCT (antisense; 2'-MOE modified, pattern not given here) [CTNN2B-1642 MOE] equal to or greater than 0.4?
y

Decide: is the reported value of cGAS 100 nM for GTCCTTGCACGTGGCTTCGT (antisense; 2'-MOE modified, pattern not given here) [EGFR-1013 MOE] equal to or greater than 0.4?
n

Decide: is the reported value of cGAS 100 nM for GTCCACATCCTGTGGCTCGT (antisense; 2'-MOE modified, pattern not given here) [CAMSAP1-2906 MOE] equal to or greater than 0.4?
y
